// each record: one item and its pIC50 for Vitamin K-dependent protein C (Homo sapiens, UniProt P04070)
Note: pIC50 values are expressed as the negative base-10 logarithm of concentration in M.

N#Cc1ccc(CC(NC(=O)[C@@H](CC2CCCCC2)NCC(=O)O)C(=O)NCc2ccc(C(=N)N)cc2)cc1 (mixture of isomers)
5.42
N=C(N)c1ccc(CNC(=O)C(CCC2CCNCC2)NC(=O)[C@H](N)CC2CCCCC2)cc1 (mixture of isomers)
5.51
N=C(N)NCCC[C@H](NC(=O)[C@H](N)C1CCCCC1)C(=O)NCc1ccc(C(=N)N)cc1
5.80

Request: pIC50, test system Vitamin K-dependent protein C (Homo sapiens, UniProt P04070), entry N=C(N)c1ccc(CNC(=O)[C@H](Cc2cccc3ccccc23)NC(=O)[C@@H](CC2CCCCC2)NCC(=O)O)cc1
Response: 5.96

Request: Any idea what pIC50 came out for N=C(N)c1ccc(CNC(=O)[C@H](Cc2ccc(N)cc2)NC(=O)[C@@H](CC2CCCCC2)NCC(=O)O)cc1 on Vitamin K-dependent protein C (Homo sapiens, UniProt P04070)?
Response: 6.89

Request: Short answer please: pIC50, Vitamin K-dependent protein C (Homo sapiens, UniProt P04070), entry N=C(N)NCCC[C@H](NC(=O)[C@@H](CC1CCCCC1)NCCC(=O)O)C(=O)NCc1ccc(C(=N)N)cc1
Response: 5.55

Request: So what pIC50 did N=C(N)c1ccc(CNC(=O)[C@H](Cc2ccccc2)NC(=O)[C@@H](CC2CCCCC2)NCC(=O)O)cc1 get with Vitamin K-dependent protein C (Homo sapiens, UniProt P04070)?
Response: 6.17

Request: # returns recorded pIC50 (system: Vitamin K-dependent protein C (Homo sapiens, UniProt P04070)) for N=C(N)c1ccc(CNC(=O)C2(NC(=O)[C@H](NCC(=O)O)C3CCCCC3)Cc3ccccc3C2)cc1
Sequence (P04070 43-197 limits assumed): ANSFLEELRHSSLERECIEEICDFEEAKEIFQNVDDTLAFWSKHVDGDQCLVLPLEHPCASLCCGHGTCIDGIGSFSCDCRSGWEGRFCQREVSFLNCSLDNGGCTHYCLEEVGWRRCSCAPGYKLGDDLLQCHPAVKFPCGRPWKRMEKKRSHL
Sequence (P04070 212-461 limits assumed): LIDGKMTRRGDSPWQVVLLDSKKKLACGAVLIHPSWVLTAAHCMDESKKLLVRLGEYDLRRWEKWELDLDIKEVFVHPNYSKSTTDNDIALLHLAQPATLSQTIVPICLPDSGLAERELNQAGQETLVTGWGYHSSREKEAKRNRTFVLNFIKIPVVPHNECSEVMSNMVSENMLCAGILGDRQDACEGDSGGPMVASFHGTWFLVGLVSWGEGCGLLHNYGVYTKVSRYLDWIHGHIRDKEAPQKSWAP
Response: 5.77

* * *

These molecules were tested on Prothrombin (Homo sapiens, UniProt P00734); pIC50 is the recorded read-out.
Please treat pIC50 as minus the base-10 logarithm of the molar concentration.

Worked examples follow.
N=C(N)NCCC[C@H](NC(=O)[C@H](N)C1CCCCC1)C(=O)NCc1ccc(C(=N)N)cc1
5.72
N=C(N)c1ccc(CNC(=O)C(CCC2CCNCC2)NC(=O)[C@H](N)CC2CCCCC2)cc1 (mixture of isomers)
4.55

Request: Value wanted: pIC50 (Prothrombin (Homo sapiens, UniProt P00734)) of entry N=C(N)NCCC[C@H](NC(=O)[C@@H](CC1CCCCC1)NCCC(=O)O)C(=O)NCc1ccc(C(=N)N)cc1
Response: 5.28

* * *

- Assayed Target: Prothrombin (Homo sapiens)
Measured Parameter: Ki (µM)
Please state the figure in µM; there is no need to write the unit.

Request: Prothrombin (Homo sapiens) / Ki / N=C(N)c1ccc(CNC(=O)C(CCC2CCNCC2)NC(=O)[C@@H](CC2CCCCC2)NCC(=O)O)cc1 (mixture of isomers) : value?
Response: 12

Request: Kindly state the measured Ki obtained for N=C(N)NCCC[C@H](NC(=O)[C@H](N)C1CCCCC1)C(=O)NCc1ccc(C(=N)N)cc1 with Prothrombin (Homo sapiens).
Response: 1

Request: Form field - read-out: Ki; system: Prothrombin (Homo sapiens); submitted item: N#Cc1ccc(CC(NC(=O)[C@@H](CC2CCCCC2)NCC(=O)O)C(=O)NCc2ccc(C(=N)N)cc2)cc1 (mixture of isomers)
Response: 2

Request: Param readout= Ki; system= Prothrombin (Homo sapiens); entry= N=C(N)c1ccc(CNC(=O)[C@H](Cc2ccc3ccccc3c2)NC(=O)[C@@H](CC2CCCCC2)NCC(=O)O)cc1 ; returns value.
Response: 3
